Hello, the source for this data is PubChem BioAssay AID1053157, in case you need it.

# Tgt: Ran-binding protein 6 (UniProt O60518)
# Sequence (O60518 whole entry, looked up): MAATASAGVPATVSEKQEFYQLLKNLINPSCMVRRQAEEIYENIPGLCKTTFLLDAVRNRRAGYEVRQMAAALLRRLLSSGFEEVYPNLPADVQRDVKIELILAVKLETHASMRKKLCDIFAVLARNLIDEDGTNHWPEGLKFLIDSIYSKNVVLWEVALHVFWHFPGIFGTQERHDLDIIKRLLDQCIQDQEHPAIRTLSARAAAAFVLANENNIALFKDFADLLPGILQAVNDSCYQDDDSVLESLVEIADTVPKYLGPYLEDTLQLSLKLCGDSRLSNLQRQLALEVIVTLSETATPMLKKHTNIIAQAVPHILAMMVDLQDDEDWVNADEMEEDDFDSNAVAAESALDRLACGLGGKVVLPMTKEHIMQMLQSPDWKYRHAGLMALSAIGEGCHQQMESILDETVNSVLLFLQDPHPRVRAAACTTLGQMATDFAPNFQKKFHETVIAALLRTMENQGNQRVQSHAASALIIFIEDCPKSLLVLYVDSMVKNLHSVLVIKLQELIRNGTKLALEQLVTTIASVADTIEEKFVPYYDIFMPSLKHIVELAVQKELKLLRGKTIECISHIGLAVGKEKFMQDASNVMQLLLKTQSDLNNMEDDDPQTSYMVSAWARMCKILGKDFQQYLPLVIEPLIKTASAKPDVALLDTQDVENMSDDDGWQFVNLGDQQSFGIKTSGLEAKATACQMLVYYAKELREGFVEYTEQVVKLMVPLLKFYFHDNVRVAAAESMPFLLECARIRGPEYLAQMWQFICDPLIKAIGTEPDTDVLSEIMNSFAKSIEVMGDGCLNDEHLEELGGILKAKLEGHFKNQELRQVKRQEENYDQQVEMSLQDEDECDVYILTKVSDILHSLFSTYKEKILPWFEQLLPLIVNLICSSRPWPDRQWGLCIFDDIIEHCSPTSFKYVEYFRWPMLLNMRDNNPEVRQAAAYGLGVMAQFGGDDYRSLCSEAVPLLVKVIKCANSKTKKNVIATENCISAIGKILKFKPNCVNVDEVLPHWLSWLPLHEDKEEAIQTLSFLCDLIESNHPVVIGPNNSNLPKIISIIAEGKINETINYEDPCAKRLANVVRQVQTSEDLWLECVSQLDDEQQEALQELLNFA
# Protocol Notes: protein binders in hepatoma cell extract, late-stage follow-up, mechanism study for Trib1 inducer project, cell lysate, SILAC, HepG2 extract, LC-MS/MS (AID 1053157)
# Test Context: SILAC chemoproteomic competition binding
Reported Endpoint: pKd
# pKd is unitless: minus log10 of the molar concentration; print number only

Log: Ran-binding protein 6 (UniProt O60518), compound "CN1C(=O)c2cc(NC(=O)c3ccc(C(F)(F)F)cc3)ccc2OC[C@@H]2O[C@H](CC(=O)NC3Cc4ccccc4C3)CC[C@@H]21" , pKd = 4.59

----------
# Tgt: Ferroptosis suppressor protein 1 (Homo sapiens) (UniProt Q9BRQ8)
# Sequence (Q9BRQ8 whole entry, looked up): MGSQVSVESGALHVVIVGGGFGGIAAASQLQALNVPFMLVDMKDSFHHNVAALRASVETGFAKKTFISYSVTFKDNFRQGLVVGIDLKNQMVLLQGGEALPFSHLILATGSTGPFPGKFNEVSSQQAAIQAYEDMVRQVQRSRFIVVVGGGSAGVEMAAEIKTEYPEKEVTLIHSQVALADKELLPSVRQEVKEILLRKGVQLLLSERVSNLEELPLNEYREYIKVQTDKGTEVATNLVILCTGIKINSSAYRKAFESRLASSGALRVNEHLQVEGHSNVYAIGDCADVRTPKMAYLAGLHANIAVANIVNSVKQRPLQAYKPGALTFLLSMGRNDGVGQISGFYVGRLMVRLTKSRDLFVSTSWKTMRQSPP
# Protocol Notes: protein binders in hepatoma cell extract, late-stage follow-up, mechanism study for Trib1 inducer project, cell lysate, SILAC, HepG2 extract, LC-MS/MS (AID 1053157)
# Test Context: SILAC chemoproteomic competition binding, Apoptosis-inducing factor
Reported Endpoint: Kd (µM)
Write down the numeric answer in µM and omit the unit.

Measured Kd, "CN1C(=O)c2cc(NC(=O)c3ccc(C(F)(F)F)cc3)ccc2OC[C@@H]2O[C@H](CC(=O)NC3Cc4ccccc4C3)CC[C@@H]21" : 26.7
